Test system: giant foxtail (Setaria faberii)
Test: Test A postemergence
Assay type: in vivo
Conditions: Setaria faberi, post-emergence, 240 h, Postemergence, 31 g ai/ha; visual injury after approx. 10 d; 0 to 100 scale, 0 no effect, 100 complete control; read-out: Plant response rating, Foxtail, Giant
Below, each of the compounds is paired with its reported pest or weed control at 31 g/ha value.

Please review the following examples before continuing.
CN1C[C@H](c2cc(C(F)F)cs2)[C@@H](C(=O)Nc2ccc(F)c(F)c2F)C1=O [Compound 1083]    80%
COc1cc([C@H]2CN(C)C(=O)[C@@H]2C(=O)Nc2cccc(F)c2F)ccc1C(F)(F)F [Compound 770]    60%
CN1C[C@H](c2ccc(C(F)F)cc2)[C@@H](C(=O)Nc2ccccc2F)C1=O [Compound 803]    90%
Cc1ccncc1NC(=O)[C@H]1C(=O)N(C)C[C@@H]1c1cccc(C(F)(F)F)c1 [Compound 1069]    0%
Cc1c(F)cccc1NC(=O)[C@H]1C(=O)N(C)C[C@@H]1c1cc(C(F)F)cs1 [Compound 1089]    80%
CN1C[C@H](c2ccc3ncccc3c2)[C@@H](C(=O)Nc2cccc(F)c2F)C1=O [Compound 1167]    0%
COc1cccc([C@H]2CN(C)C(=O)[C@@H]2C(=O)Nc2cccc(F)c2F)c1 [Compound 1062]    90%

Continue with the next compound.
The value of pest or weed control at 31 g/ha measured for the compound O=C(Nc1cccc(F)c1F)[C@H]1C(=O)N(OCc2ccccc2)CC[C@@H]1c1cccc(Cl)c1 [Compound 997] turned out to be 0%
